property-name: melting point

compound="Cn1nnnc1/C(=N\\OCc1cccc(NC(=O)OCC2COCO2)n1)c1ccccc1 (stereo not drawn)" property_name="melting point" reported_result="104 to 105 °C"
compound=COC(OC)C(=O)Nc1cccc(CO/N=C(/c2ccccc2)c2nnnn2C)n1 property_name="melting point" reported_result="88 to 90 °C"
compound=Cn1nnnc1/C(=N\OCc1cccc(NC(=O)CC2OCCCO2)n1)c1ccccc1 property_name="melting point" reported_result="107 to 108 °C"
compound="CCOC(OC(=O)Nc1cccc(CO/N=C(/c2ccccc2)c2nnnn2C)n1)C(F)(F)F (stereo not drawn)" property_name="melting point" reported_result="123 to 124 °C"
compound=CCOC(C)(OCC)C(=O)Nc1cccc(CO/N=C(/c2ccccc2)c2nnnn2C)n1.Cl property_name="melting point" reported_result="70 to 73 °C"
compound=Cn1nnnc1/C(=N\OCc1cccc(NC(=O)OC2CCOCC2)n1)c1ccccc1 property_name="melting point" reported_result="72 to 73 °C"
compound="Cn1nnnc1/C(=N\\OCc1cccc(NC(=O)OC2CCOC2)n1)c1ccccc1 (stereo not drawn)" property_name="melting point" reported_result="76 to 78 °C"
compound=COCCC(C)(C)C(=O)Nc1cccc(CO/N=C(/c2ccccc2)c2nnnn2C)n1 property_name="melting point" reported_result="86 to 87 °C"
compound="COCC(C)C(=O)Nc1cccc(CO/N=C(/c2ccccc2)c2nnnn2C)n1 (stereo not drawn)" property_name="melting point" reported_result="66 to 68 °C"
